Answer each item with its documented Blood % dose/g.
- run description: Biodistribution of 99mTc(N)(X)(DTC)+ heterocomplexes in rats
- Type: in vivo, male Spraque-Dawley rats (SD rats)
- measurement parameters: 0 min after injection
Numbers only, in % dose/g.

Some compounds with recorded Blood % dose/g:
COCCC[P]1(CCCOC)CCN(CCOC)CC[P](CCCOC)(CCCOC)[99Tc+]12(#[N])[NH]N(C)C(SC)=[S]2 [^99mTc(N)(PNP3)(DTC)^+]    1.149
COCCN1CC[P+](c2ccccc2)(c2ccccc2)[99Tc-2]2(#[N])([NH]N(C)C(SC)=[S+]2)[P+](c2ccccc2)(c2ccccc2)CC1 [^99mTc(N)(PNP2)(DTC)^+]    3.220
CCCN1CC[P+](c2ccccc2)(c2ccccc2)[99Tc-2]2(#[N])([NH]N(C)C(SC)=[S+]2)[P+](c2ccccc2)(c2ccccc2)CC1 [^99mTc(N)(PNP1)(DTC)^+]    2.125

For record CSC1=[S+][99Tc-2]2(#[N])([NH]N1C)[P+](c1ccccc1)(c1ccccc1)CCOCC[P+]2(c1ccccc1)c1ccccc1 [^99mTc(N)(POP)(DTC)^+] the listed Blood % dose/g is 2.617

----------
Answer each item with its documented Bone % dose/g.
- run description: Biodistribution of 99mTc(N)(X)(DTC)+ heterocomplexes in rats
- Assay type: in vivo, male Spraque-Dawley rats (SD rats)
- measurement parameters: 30 min after injection
Give bare numbers, in % dose/g.

COCCC[P]1(CCCOC)CCN(CCOC)CC[P](CCCOC)(CCCOC)[99Tc+]12(#[N])[NH]N(C)C(SC)=[S]2 [^99mTc(N)(PNP3)(DTC)^+]    0.230

For each entry beneath this line, provide reported Bone % dose/g.
1. COCCN1CC[P+](c2ccccc2)(c2ccccc2)[99Tc-2]2(#[N])([NH]N(C)C(SC)=[S+]2)[P+](c2ccccc2)(c2ccccc2)CC1 [^99mTc(N)(PNP2)(DTC)^+]
2. CCCN1CC[P+](c2ccccc2)(c2ccccc2)[99Tc-2]2(#[N])([NH]N(C)C(SC)=[S+]2)[P+](c2ccccc2)(c2ccccc2)CC1 [^99mTc(N)(PNP1)(DTC)^+]
3. CSC1=[S+][99Tc-2]2(#[N])([NH]N1C)[P+](c1ccccc1)(c1ccccc1)CCOCC[P+]2(c1ccccc1)c1ccccc1 [^99mTc(N)(POP)(DTC)^+]

[0.301, 0.324, 0.21]

----------
Answer each item with its documented Liver % dose/g.
- run description: Biodistribution of 99mTc(N)(X)(DTC)+ heterocomplexes in rats
- Format: in vivo, male Spraque-Dawley rats (SD rats)
- measurement parameters: 10 min after injection
Answers are plain numbers, in % dose/g.

For each entry beneath this line, provide reported Liver % dose/g.
1. CCCN1CC[P+](c2ccccc2)(c2ccccc2)[99Tc-2]2(#[N])([NH]N(C)C(SC)=[S+]2)[P+](c2ccccc2)(c2ccccc2)CC1 [^99mTc(N)(PNP1)(DTC)^+]
2. COCCC[P]1(CCCOC)CCN(CCOC)CC[P](CCCOC)(CCCOC)[99Tc+]12(#[N])[NH]N(C)C(SC)=[S]2 [^99mTc(N)(PNP3)(DTC)^+]
3. COCCN1CC[P+](c2ccccc2)(c2ccccc2)[99Tc-2]2(#[N])([NH]N(C)C(SC)=[S+]2)[P+](c2ccccc2)(c2ccccc2)CC1 [^99mTc(N)(PNP2)(DTC)^+]
4. CSC1=[S+][99Tc-2]2(#[N])([NH]N1C)[P+](c1ccccc1)(c1ccccc1)CCOCC[P+]2(c1ccccc1)c1ccccc1 [^99mTc(N)(POP)(DTC)^+]

[5.795, 1.719, 4.686, 6.161]

----------
- run description: Biodistribution of 99mTc(N)(X)(DTC)+ heterocomplexes in rats
- Format: in vivo, male Spraque-Dawley rats (SD rats)
- measurement parameters: 4 hr after injection
Answer each item with its documented Spleen % dose/g.
Numbers only, in % dose/g.

Some compounds with recorded Spleen % dose/g:
CCCN1CC[P+](c2ccccc2)(c2ccccc2)[99Tc-2]2(#[N])([NH]N(C)C(SC)=[S+]2)[P+](c2ccccc2)(c2ccccc2)CC1 [^99mTc(N)(PNP1)(DTC)^+]    6.294
COCCC[P]1(CCCOC)CCN(CCOC)CC[P](CCCOC)(CCCOC)[99Tc+]12(#[N])[NH]N(C)C(SC)=[S]2 [^99mTc(N)(PNP3)(DTC)^+]    0.195
COCCN1CC[P+](c2ccccc2)(c2ccccc2)[99Tc-2]2(#[N])([NH]N(C)C(SC)=[S+]2)[P+](c2ccccc2)(c2ccccc2)CC1 [^99mTc(N)(PNP2)(DTC)^+]    5.055

The record that follows has no Spleen % dose/g shown yet.
For record CSC1=[S+][99Tc-2]2(#[N])([NH]N1C)[P+](c1ccccc1)(c1ccccc1)CCOCC[P+]2(c1ccccc1)c1ccccc1 [^99mTc(N)(POP)(DTC)^+] the listed Spleen % dose/g is 3.094

----------
- run description: Biodistribution of 99mTc(N)(X)(DTC)+ heterocomplexes in rats
- Type: in vivo, male Spraque-Dawley rats (SD rats)
- measurement parameters: 1 hr after injection
Answer each item with its documented Spleen % dose/g.
One number for each entry, in % dose/g.

COCCC[P]1(CCCOC)CCN(CCOC)CC[P](CCCOC)(CCCOC)[99Tc+]12(#[N])[NH]N(C)C(SC)=[S]2 [^99mTc(N)(PNP3)(DTC)^+]    0.238
COCCN1CC[P+](c2ccccc2)(c2ccccc2)[99Tc-2]2(#[N])([NH]N(C)C(SC)=[S+]2)[P+](c2ccccc2)(c2ccccc2)CC1 [^99mTc(N)(PNP2)(DTC)^+]    5.073
CSC1=[S+][99Tc-2]2(#[N])([NH]N1C)[P+](c1ccccc1)(c1ccccc1)CCOCC[P+]2(c1ccccc1)c1ccccc1 [^99mTc(N)(POP)(DTC)^+]    3.542

The record that follows has no Spleen % dose/g shown yet.
For record CCCN1CC[P+](c2ccccc2)(c2ccccc2)[99Tc-2]2(#[N])([NH]N(C)C(SC)=[S+]2)[P+](c2ccccc2)(c2ccccc2)CC1 [^99mTc(N)(PNP1)(DTC)^+] the listed Spleen % dose/g is 6.711

----------
- run description: Biodistribution of 99mTc(N)(X)(DTC)+ heterocomplexes in rats
- Assay type: in vivo, male Spraque-Dawley rats (SD rats)
- measurement parameters: 30 min after injection
measurement label: Muscle % dose/g (% dose/g)
Numbers only, in % dose/g.

Some compounds with recorded Muscle % dose/g:
COCCC[P]1(CCCOC)CCN(CCOC)CC[P](CCCOC)(CCCOC)[99Tc+]12(#[N])[NH]N(C)C(SC)=[S]2 [^99mTc(N)(PNP3)(DTC)^+]    0.273
CSC1=[S+][99Tc-2]2(#[N])([NH]N1C)[P+](c1ccccc1)(c1ccccc1)CCOCC[P+]2(c1ccccc1)c1ccccc1 [^99mTc(N)(POP)(DTC)^+]    0.083
CCCN1CC[P+](c2ccccc2)(c2ccccc2)[99Tc-2]2(#[N])([NH]N(C)C(SC)=[S+]2)[P+](c2ccccc2)(c2ccccc2)CC1 [^99mTc(N)(PNP1)(DTC)^+]    0.106

For record COCCN1CC[P+](c2ccccc2)(c2ccccc2)[99Tc-2]2(#[N])([NH]N(C)C(SC)=[S+]2)[P+](c2ccccc2)(c2ccccc2)CC1 [^99mTc(N)(PNP2)(DTC)^+] the listed Muscle % dose/g is 0.103

----------
- run description: Biodistribution of 99mTc(N)(X)(DTC)+ heterocomplexes in rats
- Format: in vivo, male Spraque-Dawley rats (SD rats)
- measurement parameters: 2 hr after injection
Answer each item with its documented Bone % dose/g.
Give bare numbers, in % dose/g.

Some compounds with recorded Bone % dose/g:
CCCN1CC[P+](c2ccccc2)(c2ccccc2)[99Tc-2]2(#[N])([NH]N(C)C(SC)=[S+]2)[P+](c2ccccc2)(c2ccccc2)CC1 [^99mTc(N)(PNP1)(DTC)^+]    0.347
COCCN1CC[P+](c2ccccc2)(c2ccccc2)[99Tc-2]2(#[N])([NH]N(C)C(SC)=[S+]2)[P+](c2ccccc2)(c2ccccc2)CC1 [^99mTc(N)(PNP2)(DTC)^+]    0.357
COCCC[P]1(CCCOC)CCN(CCOC)CC[P](CCCOC)(CCCOC)[99Tc+]12(#[N])[NH]N(C)C(SC)=[S]2 [^99mTc(N)(PNP3)(DTC)^+]    0.121

For record CSC1=[S+][99Tc-2]2(#[N])([NH]N1C)[P+](c1ccccc1)(c1ccccc1)CCOCC[P+]2(c1ccccc1)c1ccccc1 [^99mTc(N)(POP)(DTC)^+] the listed Bone % dose/g is 0.296

----------
- run description: Biodistribution of 99mTc(N)(X)(DTC)+ heterocomplexes in rats
- Assay type: in vivo, male Spraque-Dawley rats (SD rats)
- measurement parameters: 2 min after injection
measurement label: Lung % dose/g (% dose/g)
One number for each entry, in % dose/g.

Some compounds with recorded Lung % dose/g:
COCCC[P]1(CCCOC)CCN(CCOC)CC[P](CCCOC)(CCCOC)[99Tc+]12(#[N])[NH]N(C)C(SC)=[S]2 [^99mTc(N)(PNP3)(DTC)^+]    0.995
CCCN1CC[P+](c2ccccc2)(c2ccccc2)[99Tc-2]2(#[N])([NH]N(C)C(SC)=[S+]2)[P+](c2ccccc2)(c2ccccc2)CC1 [^99mTc(N)(PNP1)(DTC)^+]    4.653
COCCN1CC[P+](c2ccccc2)(c2ccccc2)[99Tc-2]2(#[N])([NH]N(C)C(SC)=[S+]2)[P+](c2ccccc2)(c2ccccc2)CC1 [^99mTc(N)(PNP2)(DTC)^+]    2.040

The record that follows has no Lung % dose/g shown yet.
For record CSC1=[S+][99Tc-2]2(#[N])([NH]N1C)[P+](c1ccccc1)(c1ccccc1)CCOCC[P+]2(c1ccccc1)c1ccccc1 [^99mTc(N)(POP)(DTC)^+] the listed Lung % dose/g is 2.387
